Consider the following molecules and their measured IC50 readings.
tested on: MDA-MB-231 mammospheres; assay: Viability of MDA-MB-231 mammospheres, Alamar Blue assay (Table 1); format: cell-based; conditions: read-out: IC50 (μM), growth of MDA-MB-231 mammospheres

record smiles: Cc1c(C)c(C)c(C)c(C)c1C.Clc1cccc([N+]2=Cc3ccc4ccccc4[n+]3[Ru-]2[Cl])c1.[Cl-]
property label: IC50
assay value: 11 µM

Give IC50 for this entry on MDA-MB-231 mammospheres: "COc1ccc([N+]2=Cc3ccc4ccccc4[n+]3[Ru-]2[Cl])cc1.Cc1c(C)c(C)c(C)c(C)c1C.[Cl-]"
> 20 µM

Give measured IC50 for "CC(C)c1cc(C(C)C)cc(C(C)C)c1.COc1ccc([N+]2=Cc3ccc4ccccc4[n+]3[Ru-]2[Cl])cc1.[Cl-]" (MDA-MB-231 mammospheres).
2.2 µM

Where do these numbers come from? They come from patent US11958869B2.
